Ref: PubChem BioAssay

assay_procedure: small-molecule microarray binders of probe aNog, primary screen, biochemical, biotinylated probe, 635/667 nm fluorescence (AID 1115);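 further: probe is biotinylated aNog protein used at 0.15 µg/mL for 1 h at 4 C; z-score combines 667 nm fluorescence of each spot with its signal to noise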
assay_setup: higher = more signal
// composite z-score lookup, one value per entry
measured_quantity: composite z-score

molecule	measured_quantity	value
C=C(COC)/C(=C/C[C@@H](OC(C)=O)c1cccc(OCCO)c1)c1cc(C(=O)OC)ccc1OC	composite z-score	0.717
CCOC(=O)C1=CCC(c2cccc3ccccc23)N(S(=O)(=O)c2ccc(C)cc2)C1 (stereo not given)	composite z-score	0.276
COCCOC(=O)N1C(=O)[C@@]2(c3cc(C#CCNC(N)=O)ccc31)[C@H](C(=O)N1CCCCCCC1)[C@H]1C(=O)O[C@H](c3ccccc3)[C@H](c3ccccc3)N1[C@@H]2c1ccccc1OCCO	composite z-score	0.878
O=C1OCC=C[C@H]2OC34C=CCN(Cc5ccccc5)C(=O)[C@H]3N(CCO)C(=O)[C@@H]4[C@@H]12 (stereo not given in full)	composite z-score	-0.182
O=C(O)[C@@H]1Cc2c([nH]c3ccccc23)[C@@H](c2ccccc2)N1	composite z-score	-0.013
